// provenance: patent US20030236190A1

Each item that follows carries a reported IR/IGF-1R Comparison.
target: T1, Insulin receptor prepared according to Bass et al., 1996: soluble human insulin receptor-immunoglobulin heavy … (human, UniProt P06213 28-956); assay: phage ELISA, vs IGF-1R
T1 construct: extracellular domain; Eu3+-labelled in TR-FRET; also called IR; sIR-Fc; not shown: immunoglobulin heavy chain constant domains that replace the transmembrane and i
RECORDED METRIC: IR/IGF-1R Comparison (ratio)

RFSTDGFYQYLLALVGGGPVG [20E28-1-A11-ICFR] = 0.1
SQAGSAFYAWFDQVLRTVHSA [20E2Bβ-4-G6-IR] = 0.3
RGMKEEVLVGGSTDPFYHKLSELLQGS [B6Hα-3-F11-IR] = 0.1
LKDGFYDYFWQRLHLGS [NNRPγ-4-B11-IR] = 0.1
RGIVAMVEATEVGSDHDPFYHKLSELVQGS [B6Hα-2-C7-IR] = 0.1
GNGDGMFYQLLSLLVGRDMHV [20E22-3-C2-IGFR] = 0.1
QSPVGSSHEDFYDWFFRQVAQSGAHQ [N2CA-3-D6-IGFR] = 0.3
